B1: F1*; the commonest letter at each place (parent)
chain: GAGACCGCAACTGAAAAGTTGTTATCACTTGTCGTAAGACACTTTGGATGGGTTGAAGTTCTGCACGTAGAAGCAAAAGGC

Variants of: B1
Assay: fraction ligated after 30 min (ligated reads / total reads); higher = more ligase activity
Conditions: with F1*sub RNA substrate (template-directed ligation), 42 °C
Reported Metric: fraction ligated
# output: bare number, no unit

In: May I ask what fraction ligated has been recorded for A36C A56G ?
Out: 0.794

In: May I ask what fraction ligated has been recorded for A24C T35G ?
Out: 0.759

In: May I ask what fraction ligated has been recorded for T35G G47T ?
Out: 0.391

In: May I ask what fraction ligated has been recorded for A24C C26G ?
Out: 0.419

In: May I ask what fraction ligated has been recorded for C42A G46A ?
Out: 0.821

In: May I ask what fraction ligated has been recorded for A36G T45G ?
Out: 0.353

In: May I ask what fraction ligated has been recorded for T25G A37C ?
Out: 0.757

In: May I ask what fraction ligated has been recorded for C26T A37T ?
Out: 0.853

In: May I ask what fraction ligated has been recorded for A27G A57T ?
Out: 0.81

In: May I ask what fraction ligated has been recorded for "T35A" ?
Out: 0.836

In: May I ask what fraction ligated has been recorded for A41G A48C ?
Out: 0.736

In: May I ask what fraction ligated has been recorded for A37C G47A ?
Out: 0.796

In: May I ask what fraction ligated has been recorded for A48T A56G ?
Out: 0.0654

In: May I ask what fraction ligated has been recorded for A36C T45A ?
Out: 0.771

In: May I ask what fraction ligated has been recorded for "G55T" ?
Out: 0.83

In: May I ask what fraction ligated has been recorded for G47A A48G ?
Out: 0.61

In: May I ask what fraction ligated has been recorded for A41C T49G ?
Out: 0.209

In: May I ask what fraction ligated has been recorded for C28G G34T ?
Out: 0.798

In: May I ask what fraction ligated has been recorded for A41G G46C ?
Out: 0.768

In: May I ask what fraction ligated has been recorded for G34C G38C ?
Out: 0.818

In: May I ask what fraction ligated has been recorded for G38T A48T ?
Out: 0.129

In: May I ask what fraction ligated has been recorded for G31C T43A ?
Out: 0.807
